Target desc: IKZF2 (Homo sapiens (Human), UniProt Q96SW2+Q9UKS7)
Sequence (Q9UKS7 whole entry): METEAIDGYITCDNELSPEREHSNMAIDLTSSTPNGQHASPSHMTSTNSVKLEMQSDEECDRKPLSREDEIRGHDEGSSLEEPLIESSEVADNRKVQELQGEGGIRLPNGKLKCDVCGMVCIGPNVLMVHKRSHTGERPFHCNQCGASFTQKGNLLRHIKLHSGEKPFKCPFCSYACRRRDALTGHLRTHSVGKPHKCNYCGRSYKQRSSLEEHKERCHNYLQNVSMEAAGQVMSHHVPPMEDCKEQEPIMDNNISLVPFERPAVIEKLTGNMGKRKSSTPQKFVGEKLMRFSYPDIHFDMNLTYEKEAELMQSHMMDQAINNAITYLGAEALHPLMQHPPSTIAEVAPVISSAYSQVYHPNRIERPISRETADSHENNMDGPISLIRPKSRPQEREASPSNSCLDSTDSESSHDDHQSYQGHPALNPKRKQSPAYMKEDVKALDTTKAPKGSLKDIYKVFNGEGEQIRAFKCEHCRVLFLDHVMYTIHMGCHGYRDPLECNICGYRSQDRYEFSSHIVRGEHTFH
Sequence (Q96SW2 whole entry): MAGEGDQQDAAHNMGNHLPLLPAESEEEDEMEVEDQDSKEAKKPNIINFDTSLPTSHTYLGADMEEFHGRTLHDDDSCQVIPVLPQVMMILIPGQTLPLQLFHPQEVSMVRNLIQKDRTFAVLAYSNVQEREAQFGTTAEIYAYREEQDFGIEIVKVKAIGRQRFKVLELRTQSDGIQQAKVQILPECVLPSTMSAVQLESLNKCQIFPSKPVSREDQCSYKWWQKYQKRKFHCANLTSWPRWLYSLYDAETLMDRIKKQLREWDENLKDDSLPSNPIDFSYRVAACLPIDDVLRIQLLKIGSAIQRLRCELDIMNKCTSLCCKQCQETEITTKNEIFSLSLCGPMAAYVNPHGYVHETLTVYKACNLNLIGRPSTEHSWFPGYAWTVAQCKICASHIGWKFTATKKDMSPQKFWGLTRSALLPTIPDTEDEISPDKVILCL
Sequence (Q16531 2-1140 partner): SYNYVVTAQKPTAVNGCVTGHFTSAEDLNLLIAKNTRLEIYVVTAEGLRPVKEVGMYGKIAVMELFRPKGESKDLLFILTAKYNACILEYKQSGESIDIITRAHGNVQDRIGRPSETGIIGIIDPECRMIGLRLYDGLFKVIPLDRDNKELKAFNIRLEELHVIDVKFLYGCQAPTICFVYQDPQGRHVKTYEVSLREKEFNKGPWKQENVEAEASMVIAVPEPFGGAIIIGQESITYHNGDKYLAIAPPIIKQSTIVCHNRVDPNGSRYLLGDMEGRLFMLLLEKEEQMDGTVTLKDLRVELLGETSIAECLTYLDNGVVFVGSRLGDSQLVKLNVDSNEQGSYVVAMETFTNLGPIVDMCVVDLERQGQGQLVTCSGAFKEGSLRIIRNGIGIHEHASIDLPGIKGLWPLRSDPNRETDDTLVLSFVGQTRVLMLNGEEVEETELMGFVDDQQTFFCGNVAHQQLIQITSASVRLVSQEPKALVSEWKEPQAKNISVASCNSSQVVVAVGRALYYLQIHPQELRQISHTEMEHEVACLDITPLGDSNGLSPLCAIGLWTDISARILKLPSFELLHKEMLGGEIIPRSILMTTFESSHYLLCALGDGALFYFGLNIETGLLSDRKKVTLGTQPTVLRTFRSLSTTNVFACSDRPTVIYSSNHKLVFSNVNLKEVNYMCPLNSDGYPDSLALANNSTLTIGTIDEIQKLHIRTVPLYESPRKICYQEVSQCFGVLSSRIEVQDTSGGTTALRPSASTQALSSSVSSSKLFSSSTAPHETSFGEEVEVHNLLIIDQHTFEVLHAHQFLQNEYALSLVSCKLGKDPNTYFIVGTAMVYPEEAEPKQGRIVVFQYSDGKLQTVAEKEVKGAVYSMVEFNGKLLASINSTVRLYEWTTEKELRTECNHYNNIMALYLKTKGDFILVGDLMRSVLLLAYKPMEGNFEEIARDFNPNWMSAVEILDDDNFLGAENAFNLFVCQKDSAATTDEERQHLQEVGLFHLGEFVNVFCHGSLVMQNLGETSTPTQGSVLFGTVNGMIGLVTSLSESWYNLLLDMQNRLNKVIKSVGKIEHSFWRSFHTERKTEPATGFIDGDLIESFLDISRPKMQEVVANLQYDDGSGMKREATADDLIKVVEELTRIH
Measurement description: In vitro IKZF2 HiBit Assay (HEK293T Flp-in-HiBiT cells)
Type: cell-based
Study conditions: HEK293T Flp-in-HiBiT cells, 6 hrs incubation; read-out: IKZF2 HiBit DC50
Measured DC50, listed per entry.

// solved cases for DC50 follow
O=C1CCC(N2Cc3cc(-c4cc(CN5CCC(CO)CC5)c5ccn(C6CC6)c5n4)ccc3C2=O)C(=O)N1 (stereo not shown) [Example 144]	1 to 10 nM
O=C1CCC(N2Cc3cc(-c4cc(CN5CCCC5)c5ncn(C6COC6)c5n4)ccc3C2=O)C(=O)N1 (stereo not shown) [Example 211]	10 to 100 nM
O=C1CCC(N2Cc3cc(-c4cc(CN5CCC5)c5[nH]ccc5n4)ccc3C2=O)C(=O)N1 (stereo not shown) [Example 156]	1 to 10 nM

Q) Find the recorded DC50 belonging to COC1CN(Cc2cc(-c3ccc4c(c3)CN(C3CCC(=O)NC3=O)C4=O)nc3c2ccn3C)C1 (stereo not shown) [Example 85] and report it.
A) 1 to 10 nM

Q) Requested read-out: DC50. Entry: O=C1CCC(N2Cc3cc(-c4cc(CN5CCCC5)c5ccn(C6COC6)c5n4)ccc3C2=O)C(=O)N1 (stereo not shown) [Example 129]
A) < 1 nM

Q) # lookup: DC50 of N#CCn1ccc2c(CN3CCCC3)cc(-c3ccc4c(c3)CN(C3CCC(=O)NC3=O)C4=O)nc21 (stereo not shown) [Example 133]
A) 1 to 10 nM

Q) Which DC50 value belongs to Cc1cc(-c2ccc3c(c2)CN(C2CCC(=O)NC2=O)C3=O)nc2nc(CN3CCCC3)oc12 (stereo not shown) [Example 195] ?
A) 10 to 100 nM

---

# Lookup of reported inhibition at 0.001 µM keyed by entry
Target desc: IKZF2 (Homo sapiens (Human), UniProt Q96SW2+Q9UKS7)
Measurement description: In vitro IKZF2 Western Blot Assay in Jurkat cells
Assay type: cell-based
Study conditions: 24 hrs, 0.001 μM, read-out: IKZF2 degradation (%) @ μM 0.001

Take a look at these entries with their results.
O=C1CCC(N2Cc3cc(-c4cc(CN5CCCC5c5ccccc5)cn5ccnc45)ccc3C2=O)C(=O)N1 (stereo not shown)	< 30%
O=C1CCC(N2Cc3cc(-c4cc(CN5CCC5)cn5ccnc45)ccc3C2=O)C(=O)N1 (stereo not shown)	30 to 50%
O=C1CCC(N2Cc3cc(-c4cc(CNCCc5ccccc5Cl)cn5ccnc45)ccc3C2=O)C(=O)N1 (stereo not shown)	< 30%

Please turn your attention to the following entry.
Q) Please report the recorded inhibition at 0.001 µM for CC(NCc1cc(-c2ccc3c(c2)CN(C2CCC(=O)NC2=O)C3=O)c2nccn2c1)c1ccccc1 (stereo not shown) .
A) 30 to 50%

---

Catalogue of pIC50 values
Target desc: CRBN/DDB1 (Homo sapiens (Human))
Sequence (Q16531 whole entry partner, species assumed, one chain of several): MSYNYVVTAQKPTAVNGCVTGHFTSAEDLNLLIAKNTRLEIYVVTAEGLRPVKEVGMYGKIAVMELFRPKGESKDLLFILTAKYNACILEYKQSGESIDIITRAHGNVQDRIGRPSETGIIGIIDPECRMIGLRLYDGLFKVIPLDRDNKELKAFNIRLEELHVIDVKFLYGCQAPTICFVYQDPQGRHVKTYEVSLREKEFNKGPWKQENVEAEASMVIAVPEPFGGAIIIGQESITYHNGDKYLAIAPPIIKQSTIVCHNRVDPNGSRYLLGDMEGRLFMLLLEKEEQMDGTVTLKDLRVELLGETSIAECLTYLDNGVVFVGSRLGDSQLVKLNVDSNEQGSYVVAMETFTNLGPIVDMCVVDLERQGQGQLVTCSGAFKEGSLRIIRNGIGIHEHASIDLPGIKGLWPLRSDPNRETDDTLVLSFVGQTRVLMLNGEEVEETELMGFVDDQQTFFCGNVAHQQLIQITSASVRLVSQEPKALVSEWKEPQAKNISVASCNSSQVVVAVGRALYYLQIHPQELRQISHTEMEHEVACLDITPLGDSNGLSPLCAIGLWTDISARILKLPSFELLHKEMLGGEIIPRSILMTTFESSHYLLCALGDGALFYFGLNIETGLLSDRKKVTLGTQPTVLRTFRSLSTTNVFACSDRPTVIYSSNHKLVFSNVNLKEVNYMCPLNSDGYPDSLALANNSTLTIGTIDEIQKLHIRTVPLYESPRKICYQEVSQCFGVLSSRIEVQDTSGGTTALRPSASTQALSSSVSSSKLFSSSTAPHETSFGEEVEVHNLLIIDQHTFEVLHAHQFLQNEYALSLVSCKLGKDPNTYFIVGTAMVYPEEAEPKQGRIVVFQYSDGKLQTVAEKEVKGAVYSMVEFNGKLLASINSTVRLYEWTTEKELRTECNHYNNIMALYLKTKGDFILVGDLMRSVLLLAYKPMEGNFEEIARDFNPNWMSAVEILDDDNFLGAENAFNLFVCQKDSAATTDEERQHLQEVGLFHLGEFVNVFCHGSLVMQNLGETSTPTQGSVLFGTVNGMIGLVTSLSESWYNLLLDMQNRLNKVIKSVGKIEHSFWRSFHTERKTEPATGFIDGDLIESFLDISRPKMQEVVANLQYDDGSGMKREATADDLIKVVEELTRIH
Measurement description: IC50 measurements for binding to CRBN/DDB1 (HTRF)
Study conditions: His tagged CRBN+DDB, Cy5-labeled Thalidomide probe, one hour
pIC50: −log10 of the molar value.

Observe how each entry below is paired with its result.
O=C1CCC(N2Cc3cc(-c4cc(CN5CCC(CO)C5)c5ccn(C6CC6)c5n4)ccc3C2=O)C(=O)N1 (stereo not shown)	6.30 to 7.00
O=C1CCC(N2Cc3cc(-c4cc(CN5CC6COCC(C6)C5)c5cc[nH]c5n4)ccc3C2=O)C(=O)N1 (stereo not shown)	5.30 to 6.00
Cn1ccc2c(CN3CCSCC3)cc(-c3ccc4c(c3)CN(C3CCC(=O)NC3=O)C4=O)nc21 (stereo not shown)	6.30 to 7.00

Now examine the next entry.
Q) Please state recorded pIC50 (tested on CRBN/DDB1 (Homo sapiens (Human))) of CN(Cc1cc(-c2ccc3c(c2)CN(C2CCC(=O)NC2=O)C3=O)n2cncc2c1)C(C)(C)c1ccccc1 (stereo not shown)
A) 5.30 to 6.00
